Target: T1, TIM-3 protein on human peripheral blood mononuclear lymphocytes (PBMC) (human, UniProt Q8TDQ0 22-301)
T1 sequence: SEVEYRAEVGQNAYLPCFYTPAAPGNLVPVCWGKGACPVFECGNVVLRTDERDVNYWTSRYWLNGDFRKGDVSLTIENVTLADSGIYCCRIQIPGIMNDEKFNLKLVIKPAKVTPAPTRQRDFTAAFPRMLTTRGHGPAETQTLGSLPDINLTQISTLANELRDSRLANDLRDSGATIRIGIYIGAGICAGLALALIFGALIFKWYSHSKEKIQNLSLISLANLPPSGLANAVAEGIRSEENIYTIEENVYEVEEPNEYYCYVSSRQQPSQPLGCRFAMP
Experiment: cell-based or functional assay
Outcome measure: IFN-γ production (donor X); antibody '0' (5th head as printed), N = 1 (pg/mL)

• 57F4E5 fully human TIM-3 antibody (human IgG4, kappa) (antibody, V domains shown) VH: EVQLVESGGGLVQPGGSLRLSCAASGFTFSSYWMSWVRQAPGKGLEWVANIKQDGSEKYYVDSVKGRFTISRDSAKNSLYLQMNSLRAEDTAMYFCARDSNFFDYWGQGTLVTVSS VL: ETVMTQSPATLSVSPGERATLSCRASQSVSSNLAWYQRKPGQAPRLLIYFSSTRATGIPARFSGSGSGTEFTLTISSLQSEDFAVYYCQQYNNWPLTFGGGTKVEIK = 2160
• 134H3G6 fully human TIM-3 antibody (human IgG4, kappa) (antibody, V domains shown) VH: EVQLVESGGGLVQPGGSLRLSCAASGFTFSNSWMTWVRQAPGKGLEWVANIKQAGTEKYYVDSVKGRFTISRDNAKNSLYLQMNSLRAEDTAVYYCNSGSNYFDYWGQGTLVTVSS VL: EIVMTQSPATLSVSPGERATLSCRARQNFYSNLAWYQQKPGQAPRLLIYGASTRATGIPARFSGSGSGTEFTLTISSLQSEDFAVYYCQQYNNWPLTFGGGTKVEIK = 2510
• 39E5H1 fully human TIM-3 antibody (human IgG4, kappa) (antibody, V domains shown) VH: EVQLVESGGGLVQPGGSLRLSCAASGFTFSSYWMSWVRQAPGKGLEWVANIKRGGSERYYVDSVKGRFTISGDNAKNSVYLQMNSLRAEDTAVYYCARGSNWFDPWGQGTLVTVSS VL: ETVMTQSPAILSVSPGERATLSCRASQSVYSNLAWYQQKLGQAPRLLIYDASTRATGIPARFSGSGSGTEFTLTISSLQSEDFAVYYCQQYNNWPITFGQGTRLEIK = 2190
